experiment: binders of probe aFSTL3 on microarray, primary screen, stem cell growth factor project, biochemical, small-molecule microarray, fluorescence 635/667 (AID 1064); details: higher = more signal;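 also: measures binding of the biotinylated anti-FSTL3 antibody to printed compounds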
readout: composite z-score
Enter the number alone.

Tell me the measured composite z-score of C=C(COC)/C(=C/C[C@@H](OC(C)=O)c1ccc(CO)o1)c1cnc2ccccc2c1 , please. -0.258

// repeat for CN(C)C(=O)[C@@]1(Cc2ccccc2)N=C(c2ccc(OCCCO)cc2)O[C@H]1c1ccccc1N=[N+]=[N-] and report 0.0567

And C[N+](C)(C)CCCC[C@@H]1NC(=O)[C@@H]2C[C@H](C(=O)NCCCCCN)[C@H](c3cccc(OCCO)c3)N2C1=O ? 0.6

Next record, please: COc1ccc(C(O)C2C=CC3C(=O)N(c4ccccc4)C(=O)C3N2Nc2ccc(C(C)C)cc2)cc1OCc1ccccc1 (stereo unspecified) 0.838

Same read-out for COCCOC(=O)N1C(=O)[C@@]2(c3ccccc31)[C@H](c1ccc(O)cc1)N1[C@H](c3ccccc3)[C@H](c3ccccc3)OC(=O)[C@H]1[C@@H]2C(=O)NC[C@H](O)c1ccccc1 ? 0.0147

Proceed to CC(C)C[C@@H]1NC(=O)[C@@H]2C[C@H](C(=O)NCCCCCN)[C@H](c3cccc(OCCO)c3)N2C1=O 0.235

Another compound to look at: COc1cc2c(cc1O)C=[N+](Cc1cccc(OC(F)(F)F)c1)CC2 -0.193

How about Cc1ccc(S[C@]2(C(=O)NCC(F)(F)F)CC(=O)N(C(C)C)[C@@H]2c2ccc(CO)cc2I)cc1 ? 0.163

Do the same for COc1ccc([Si](C)(C)[C@H]2[C@H](CC(=O)N3CCC[C@H]3CO)O[C@@]3(C(=O)N(Cc4cccc(N5C(=O)c6cccc7cccc5c67)c4)c4ccccc43)[C@@H]2C)cc1 please -0.354

Can you handle COCCCNC(=O)C1N=C(c2ccc(OCCCO)cc2)N(c2ccccc2)O1 (stereo unspecified) next? -0.39

Then this compound: CN1C(=O)C2C=CC(C(O)c3cccs3)N(Nc3ccccc3)C2C1=O (stereo unspecified) 0.0812

Try the compound Cc1ccc(S[C@]2(C(=O)NCCN3CCOCC3)CC(=O)N(Cc3ccccc3)[C@@H]2c2ccc(CO)cc2I)cc1 1.09

Now consider COc1ccc(C(O)C2C=CC3C(=O)NC(=O)C3N2Nc2ccccn2)c2ccccc12 (stereo unspecified) and answer again. -0.37

CN(C)CCCNC(=O)[C@@]1(c2ccc([N+](=O)[O-])cc2)CC(=O)N(C2CCCCC2)[C@@H]1c1ccc(CO)cc1 ? 0.4

And what about the compound C#CCNC(=O)[C@H](Cc1ccccc1)NC(=O)CCC(=O)O ? -0.0733

Now consider O=C(NCc1ccccc1)[C@@]1(CCS(=O)(=O)c2ccccc2)N=C(c2ccc(OCCCO)cc2)O[C@H]1c1ccccc1 and answer again. -0.0744

What do we get for COC(=O)[C@@]1(Cc2ccc(OC)cc2)[C@H]2c3cc(C(=O)N4CCCC4)n(Cc4ccc(OC)c(OC)c4)c3C[C@H]2CN1C(=O)c1ccccc1 ? 1.65

Lookup CCCCC(O)C1C=CC2C(=O)N(c3ccccc3)C(=O)C2N1Nc1ccccc1F (stereo unspecified) 1.12

// query: Cc1ccc(S[C@]2(C(=O)NC(C)C)CC(=O)N(Cc3ccccc3Cl)[C@@H]2c2ccc(CO)cc2I)cc1 0.319

Also need COc1cc(OC)c(C(O)C2C=CC3C(=O)NC(=O)C3N2Nc2ccc(Cl)cc2Cl)cc1Br (stereo unspecified) , thanks. 0.379

Entry to check: C=C(CCCC)/C(=C/C[C@@H](OC(C)=O)c1ccccc1OCCO)c1cnc2ccccc2c1 0.0298

One more compound: O=C1O[C@@H](c2ccccc2)[C@@H](c2ccccc2)N2[C@@H](c3ccccc3OCCO)[C@]3(C(=O)Nc4ccc(C#CC5=CCCCC5)cc43)[C@@H](C(=O)Nc3nc4ccccc4s3)[C@H]12 -0.177

Do the same for O=C1C2C=CC(C(O)c3ccc(F)cc3)N(Nc3ccccc3F)C2C(=O)N1c1ccccc1 (stereo unspecified) please 0.185

Continue with O=C1OCC=C[C@H]2OC34C=CCN(c5ccc6ccccc6c5)C(=O)[C@H]3N(CCCCCCO)C(=O)[C@@H]4[C@@H]12 (stereo partly specified) 0.787

What do you have for CC(C)(C)OC(=O)CC[C@]12N=C(c3ccc(OCCCO)cc3)O[C@H]1c1ccccc1N(CCS(=O)(=O)c1ccccc1)C2=O ? 0.144

Now the compound C=C(CCCC)C(=O)CC[C@H](OC(C)=O)c1cccc(OCCO)c1 0.137

// query: O=C(NCc1ccc(F)cc1)[C@H]1C[C@H]2C(=O)N[C@@H](Cc3ccccc3)C(=O)N2[C@H]1c1ccc(O)cc1 1.12

Same for O=C1OCC=C[C@H]2OC34C=CCN(CCN5CCOCC5)C(=O)[C@H]3N(CCCO)C(=O)[C@@H]4[C@@H]12 (stereo partly specified) -0.206

Proceed to CCCCc1cn(C[C@H](Cc2ccccc2)NC(=O)N[C@H](CO)CCc2oc(C(C)=O)c(C(=O)OC)c2C(=O)OC)nn1 -0.422

And then COC(=O)[C@@]1(Cc2ccc(F)cc2)[C@H]2c3cc(C(=O)N(C)C)n(CC4CC4)c3C[C@H]2CN1C(=O)c1ccccc1 , what is it? 2.43

Entry to check: O=C1C2C=CC(C(O)C3CCCCC3)N(Nc3ccc([N+](=O)[O-])cc3)C2C(=O)N1c1ccccc1 (stereo unspecified) 0.274

* * *

experiment: P. aeruginosa biofilm formation inhibitors, primary screen, strain PAO1, LB-PBS medium, absorbance 600 nm (AID 1176); also: test concentration not given here; settings: P. aeruginosa PAO1 growth/biofilm, A600, 12 h; higher = more signal
We use 0.5 as the dividing line for z-score: on or above the line is true (1), below is false (0).

z-score >= 0.5 for [N-]=[N+]=NCc1ccccc1C[C@@]1(C(=O)NCC(O)CO)N=C(c2ccc(OCCCO)cc2)O[C@@H]1c1ccccc1N=[N+]=[N-] (some centres undefined) ? true (1)

Now the same for [N-]=[N+]=Nc1ccccc1[C@H]1OC(c2ccc(OCCCO)cc2)=N[C@@]1(Cc1ccccc1)C(=O)O true (1)

Follow-up entry: CC(=O)NCCCC[C@@H]1NC(=O)[C@@H]2C[C@H](C(=O)NCCCCN(C)C)[C@H](c3cccc(OCCO)c3)N2C1=O false (0)

// next record Cc1ccc(S[C@]2(C(=O)NC3CC3)CC(=O)N(C3Cc4ccccc4C3)[C@@H]2c2ccc(CO)cc2)cc1 false (0)

Ok, now O=C1OCCC/C=C\[C@H]2OC34C=CCN(Cc5ccccc5)C(=O)[C@H]3N(CCCCCCO)C(=O)[C@@H]4C12 (some centres undefined) false (0)

Ok, now Cc1ccc(S[C@]2(C(=O)NC(C)C)CC(=O)N(Cc3ccccc3Cl)[C@@H]2c2ccc(CO)cc2I)cc1 true (1)

Next up: CC(C)(C)OC(=O)CC[C@@]1(C(N)=O)N=C(c2ccc(OCCCO)cc2)O[C@@H]1c1ccccc1 false (0)

// next record [N-]=[N+]=Nc1ccccc1C[C@]1(C(=O)NCC(O)CO)N=C(c2ccc(OCCCO)cc2)O[C@H]1c1ccccc1N=[N+]=[N-] (some centres undefined) false (0)

Then this compound: C=CC[C@]1(C(=O)NCCCOC)N=C(c2ccc(OCCCO)cc2)O[C@H]1c1ccccc1N=[N+]=[N-] true (1)

What do we get for C=CC[C@@]1(C(N)=O)N=C(c2ccc(OCCCO)cc2)O[C@@H]1c1ccccc1CN=[N+]=[N-] ? false (0)

Now the same for CCCN1C(=O)[C@]2(CCS(=O)(=O)c3ccccc3)N=C(c3ccc(OCCCO)cc3)O[C@@H]2c2ccccc21 false (0)

Next entry: COCCOC(=O)N1C(=O)[C@@]2(c3cc(C#Cc4ccc(OC)cc4)ccc31)[C@H](c1ccc(O)cc1)N1[C@H](c3ccccc3)[C@H](c3ccccc3)OC(=O)[C@H]1[C@@H]2C(=O)NC[C@H](O)c1ccccc1 false (0)

Similarly, O=C(O)[C@@]1(CCS(=O)(=O)c2ccccc2)COC(c2ccc(OCCCO)cc2)=N1 ? false (0)

Next compound up: CN1C(=O)C2C=CC(C(O)c3ccccc3)N(Nc3ccccc3)C2C1=O (centres undefined) true (1)

Same again, this time with CC1CC/C=C\[C@H]2OC34C=CCN(Cn5nnc6ccccc65)C(=O)[C@H]3N(C(CO)C(C)C)C(=O)[C@@H]4C2C(=O)O1 (some centres undefined) false (0)

Also CCN(CC)c1ccc(N2CC=CC34O[C@@H]5/C=C\CCCOC(=O)C5[C@H]3C(=O)N(CCO)[C@@H]4C2=O)cc1 (some centres undefined) , if possible. false (0)

// repeat for C=CCNC(=O)[C@H]1[C@@H]2C(=O)O[C@@H](c3ccccc3)[C@@H](c3ccccc3)N2[C@@H](c2ccccc2OCCO)[C@]12C(=O)Nc1ccc(C#CC3=CCCCC3)cc12 and report true (1)

Record: C=CCOC(=O)[C@@H]1[C@H]2C(=O)O[C@H](c3ccccc3)[C@H](c3ccccc3)N2[C@H](c2ccc(OCCOC(=O)[C@@H]3C[C@@H]4C(=O)N[C@@H](CCCC[N+](C)(C)C)C(=O)N4[C@@H]3c3cccc(OCCO)c3)cc2)[C@@]12C(=O)Nc1ccc(I)cc12 true (1)

Similarly, C=C(CCCC)C(=O)CC[C@@H](OC(=O)c1cccnc1)c1ccc(CO)o1 ? true (1)

Now consider COc1cc(OC)c(C(O)C2C=CC3C(=O)NC(=O)C3N2Nc2ccc(Cl)cc2Cl)cc1Br (centres undefined) . false (0)

And CN(C)CCCNC(=O)[C@@]1(c2ccc([N+](=O)[O-])cc2)CC(=O)N(C2CCCCC2)[C@@H]1c1ccc(CO)cc1 ? false (0)

Next compound: COC(=O)[C@@]1(Cc2ccc(F)cc2)[C@H]2c3cc(C(=O)N4CCCC4)n(Cc4cc(C)n(C)n4)c3C[C@H]2CN1C(=O)c1ccccc1 true (1)

Next record, please: COc1ccc(C(=O)Nc2cccc(CN3C(=O)[C@]4(O[C@H](CCO)[C@@H]([Si](C)(C)c5ccc(OC)cc5)[C@@H]4C)c4ccccc43)c2)cc1 true (1)

Subsequent entry: COc1ccc([C@H]2C[C@H]3C(Br)=C[C@@H]2C(=O)[C@]32CO2)cc1 false (0)

Another compound: COCCCN1C(=O)[C@@]2(c3ccc([N+](=O)[O-])cc3)CC(=O)N(C3CCCCC3)[C@@H]2c2ccc(CO)cc21 false (0)

And what about the compound CCOC(=O)C1=CCC(c2ccc(C)cc2)N(S(=O)(=O)c2ccc(C)cc2)C1 (centres undefined) ? false (0)

And CCCCCCC#C[Si](O[C@H](c1ccccc1)c1cn([C@H](CO)Cc2ccccc2)nn1)(C(C)C)C(C)C ? false (0)

Request: CO[C@H]1O[C@H](CO)[C@@H](OC(=O)Nc2ccc(Br)cc2)[C@H](OC(=O)c2cc3ccccc3[nH]2)[C@H]1OC(=O)c1cc2ccccc2[nH]1 true (1)

How about this compound: CN(C)C(=O)[C@@]1(Cc2ccccc2)N=C(c2ccc(OCCCO)cc2)O[C@H]1c1ccccc1N=[N+]=[N-] false (0)
